From: patent US20240270732A1

target: human RIP1 kinase (Homo sapiens (Human), UniProt Q13546)
Sequence (Q13546 whole entry): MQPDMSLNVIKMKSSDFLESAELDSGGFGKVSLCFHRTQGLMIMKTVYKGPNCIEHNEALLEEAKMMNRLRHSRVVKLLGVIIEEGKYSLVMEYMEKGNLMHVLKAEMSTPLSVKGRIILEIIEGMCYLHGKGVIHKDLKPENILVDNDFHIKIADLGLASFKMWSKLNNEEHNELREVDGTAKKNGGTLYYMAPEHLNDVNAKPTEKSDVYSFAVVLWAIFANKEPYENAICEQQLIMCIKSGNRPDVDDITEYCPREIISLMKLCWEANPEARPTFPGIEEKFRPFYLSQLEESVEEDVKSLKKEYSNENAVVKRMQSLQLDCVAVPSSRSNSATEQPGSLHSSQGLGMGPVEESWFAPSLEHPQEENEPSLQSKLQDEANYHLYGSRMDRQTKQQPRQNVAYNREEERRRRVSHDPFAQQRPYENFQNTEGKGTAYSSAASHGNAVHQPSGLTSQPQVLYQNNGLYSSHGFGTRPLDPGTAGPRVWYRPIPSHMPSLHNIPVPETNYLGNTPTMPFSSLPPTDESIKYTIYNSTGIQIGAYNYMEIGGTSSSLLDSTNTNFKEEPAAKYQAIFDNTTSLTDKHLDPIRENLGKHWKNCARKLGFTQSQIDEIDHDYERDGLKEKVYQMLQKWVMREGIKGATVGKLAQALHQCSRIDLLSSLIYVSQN
ASSAY_READOUT: IC50 (nM)
State just the number; it will be interpreted in nM.

Report IC50 for `CN1C(=O)[C@H](NC(=O)c2ncn(Cc3ccccc3)n2)COc2ccc(C#CCOCCOCCOCCOCCOCC#CC#CCOCCOCCOCCOCCOCC#Cc3ccc4c(c3)N(C)C(=O)[C@H](NC(=O)c3ncn(Cc5ccccc5)n3)CO4)cc21` please.
6.29

Entry CC(O)C#Cc1ccc2c(c1)N(C)C(=O)[C@@H](NC(=O)c1ncn(Cc3ccccc3)n1)[C@@H](C)O2 (some centres unmarked) please
10.2

Entry `C#CCN1CCN(CC#Cc2ccc3c(c2)N(C)C(=O)[C@@H](NC(=O)c2ncn(Cc4ccccc4)n2)[C@H](C)O3)CC1` please
79

Entry `[2H]C([2H])([2H])N1C(=O)[C@@H](NC(=O)c2n[nH]c(Cc3ccccc3)n2)[C@@H](C)Oc2ccc(C#CCN3CCN(CC#Cc4ccc5c(c4)N(C([2H])([2H])[2H])C(=O)[C@@H](NC(=O)c4n[nH]c(Cc6ccccc6)n4)[C@@H](C)O5)CC3)cc21` please
4.88

====

Listed here: compounds with reported IC50 for human RIP1 kinase (Homo sapiens (Human)).

[[record]]
smiles_structure = "C[C@H]1Oc2ccc(C#Cc3cccnc3)cc2N(C)C(=O)[C@H]1NC(=O)c1ncn(Cc2ccccc2)n1"
tested_system = "human RIP1 kinase (Homo sapiens (Human))"
assay_readout = "IC50"
observed_measurement = "7.21 nM"

[[record]]
smiles_structure = "[2H]C([2H])([2H])N1C(=O)[C@@H](NC(=O)c2n[nH]c(Cc3ccccc3)n2)[C@@H](C)Oc2ccc(C#CCN3CCN(CC#C)CC3)cc21"
tested_system = "human RIP1 kinase (Homo sapiens (Human))"
assay_readout = "IC50"
observed_measurement = "4.52 nM"

[[record]]
smiles_structure = "C[C@H]1Oc2ccc(C#CCN3CCN(CC#Cc4ccc5c(c4)NC(=O)[C@@H](NC(=O)c4ncn(Cc6ccccc6)n4)[C@@H](C)O5)CC3)cc2NC(=O)[C@H]1NC(=O)c1ncn(Cc2ccccc2)n1"
tested_system = "human RIP1 kinase (Homo sapiens (Human))"
assay_readout = "IC50"
observed_measurement = "4.18 nM"

[[record]]
smiles_structure = "C[C@H]1Oc2ccc(C#CCOCCOCCOCCOCCOCC#CC#CCOCCOCCOCCOCCOCC#Cc3ccc4c(c3)N(C)C(=O)[C@H](NC(=O)c3ncn(Cc5ccccc5)n3)[C@@H](C)O4)cc2N(C)C(=O)[C@@H]1NC(=O)c1ncn(Cc2ccccc2)n1"
tested_system = "human RIP1 kinase (Homo sapiens (Human))"
assay_readout = "IC50"
observed_measurement = "7.44 nM"

[[record]]
smiles_structure = "C[C@@H]1Oc2ccc(C#CCN3CCN(CC#Cc4ccc5c(c4)N(C)C(=O)[C@@H](NC(=O)c4ncn(Cc6ccccc6)n4)[C@@H](C)O5)CC3)cc2N(C)C(=O)[C@H]1NC(=O)c1ncn(Cc2ccccc2)n1"
tested_system = "human RIP1 kinase (Homo sapiens (Human))"
assay_readout = "IC50"
observed_measurement = "66.3 nM"


Report IC50 for `C[C@H]1Oc2ccc(C#Cc3cccc(N)c3)cc2N(C)C(=O)[C@H]1NC(=O)c1n[nH]c(Cc2ccccc2)n1` please.
12.7 nM

Entry `CN1C(=O)[C@@H](NC(=O)c2n[nH]c(Cc3ccccc3)n2)COc2ccc(C#CCCCCC#Cc3ccc4c(c3)N(C)C(=O)[C@@H](NC(=O)c3n[nH]c(Cc5ccccc5)n3)CO4)cc21` please
8.85 nM
